These entries and their values trace back to paper PMC10786891.

Kd: recorded values
Target: T1, EsCas13d, nuclease-dead (Eubacterium siraeum, UniProt B0MS50, R295A;H300A;R849A;H854A)
T1 sequence: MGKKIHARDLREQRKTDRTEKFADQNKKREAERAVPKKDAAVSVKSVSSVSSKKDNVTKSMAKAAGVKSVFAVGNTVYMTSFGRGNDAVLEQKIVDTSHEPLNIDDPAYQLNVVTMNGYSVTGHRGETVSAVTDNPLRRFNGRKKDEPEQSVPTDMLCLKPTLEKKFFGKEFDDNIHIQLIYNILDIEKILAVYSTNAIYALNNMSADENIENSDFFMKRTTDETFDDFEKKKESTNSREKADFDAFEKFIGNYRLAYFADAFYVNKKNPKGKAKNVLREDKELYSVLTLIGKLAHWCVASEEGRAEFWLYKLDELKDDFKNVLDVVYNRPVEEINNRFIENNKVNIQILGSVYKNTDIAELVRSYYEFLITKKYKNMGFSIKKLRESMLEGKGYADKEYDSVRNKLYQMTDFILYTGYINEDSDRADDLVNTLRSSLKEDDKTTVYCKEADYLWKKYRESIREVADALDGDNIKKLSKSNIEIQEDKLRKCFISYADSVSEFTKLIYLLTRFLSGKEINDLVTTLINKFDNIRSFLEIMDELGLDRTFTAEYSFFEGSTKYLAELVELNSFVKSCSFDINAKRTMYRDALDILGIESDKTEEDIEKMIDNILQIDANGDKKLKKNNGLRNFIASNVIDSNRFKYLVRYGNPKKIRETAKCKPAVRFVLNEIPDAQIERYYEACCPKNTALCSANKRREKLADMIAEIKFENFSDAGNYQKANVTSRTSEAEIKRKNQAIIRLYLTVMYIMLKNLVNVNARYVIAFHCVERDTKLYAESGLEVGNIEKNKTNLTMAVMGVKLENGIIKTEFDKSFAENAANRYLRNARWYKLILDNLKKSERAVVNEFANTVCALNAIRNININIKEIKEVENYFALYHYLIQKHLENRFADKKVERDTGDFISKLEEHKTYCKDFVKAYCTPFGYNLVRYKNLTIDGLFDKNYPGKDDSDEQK
Experiment: crRNA (strand 1, pre-loaded); Mg2+; 40 mM Tris-HCl pH 7.5, 150 mM NaCl, 6 mM MgCl2, 1 mM DTT, 0.1% Tween-20, 0.2 mg/ml BSA; 25 C; 10 min per concentration, then washed
Details: tags: His6-TwinStrep-SUMO cleaved; N-terminal SNAP kept (SNAP-Surface 488); label: 3' end held by stalled T7 RNA polymerase
Your answer should be a plain number; it is taken to be in nM.

Sample answers from the record:
binder	readout.value
target 1 insG 3' of 4,insG 3' of 3 (mixed) RNA 1: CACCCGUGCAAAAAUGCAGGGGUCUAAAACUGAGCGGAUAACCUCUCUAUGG RNA 2: GGGAAUGGAUCCACAUCUACGAAUUCGUACCAUAGAGAGGUUAUCCGCGUGCACCGAGAUCGGAAGAGCACACGU	8.2
target 2 MT 5'PFS CUU 3'PFS AUU (mixed) RNA 1: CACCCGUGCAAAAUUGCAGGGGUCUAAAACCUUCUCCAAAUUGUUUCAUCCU RNA 2: GGGAAUGGAUCCACAUCUACGAAUUCCUUAGGAUGAAACAAUUUGGAGAAGAUUAGAUCGGAAGAGCACACGU	3.9
target 1 U8C,A16U (mixed) RNA 1: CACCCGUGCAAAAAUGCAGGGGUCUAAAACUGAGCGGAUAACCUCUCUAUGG RNA 2: GGGAAUGGAUCCACAUCUACGAAUUCGUACCAUAGUGAGGUUACCCGCUCACCGAGAUCGGAAGAGCACACGU	59

Let us move to another entry and its Kd.
Input: Quick one: Kd of target 2 MT 5'PFS GUG 3'PFS UCA (mixed) RNA 1: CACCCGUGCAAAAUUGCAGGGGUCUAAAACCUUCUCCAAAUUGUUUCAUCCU RNA 2: GGGAAUGGAUCCACAUCUACGAAUUCGUGAGGAUGAAACAAUUUGGAGAAGUCAAGAUCGGAAGAGCACACGU ?
Output: 17.3
